test system: RXF-631 renal; assay: NCI tumour cell line growth inhibition, 48 h
TGI by entry:
measured.metric: TGI

1. Nc1nc2c(ncn2C2OC(CO)C(O)C2O)c(=O)o1 (stereo unspecified); > 100 µM
2. Cc1cc(N(CCC#N)CCC#N)ccc1/C(Sc1ccccc1)=C(\NC(=O)/C=C/c1ccccc1)C(=O)Sc1ccccc1; > 32.2 µM
3. O=C(Nc1ccc(Nc2ccc(NC(=O)c3ccccc3)c3c2C(=O)c2ccccc2C3=O)c2c1C(=O)c1ccccc1C2=O)c1ccccc1; > 100 µM
4. O=C1NC(=S)NC(=O)C1=Cc1ccc([N+](=O)[O-])o1; 33.5 µM
5. C=CCc1cc(OC)c(O)c(C(=O)/C=C/c2ccc(OC)c(OC)c2)c1; 83.9 µM
6. C=C(CN(C)C)C(=O)c1ccccc1; 48.5 µM
7. CC(=O)c1ccc(NC(=O)C(=O)CC(=O)c2sc(-n3nc(-c4ccccc4)cc3-c3ccccc3)nc2C)cc1; > 100 µM
8. O=C(Nc1ccc(C(F)(F)F)cc1[N+](=O)[O-])C(=O)Nn1c(=S)[nH]c2ccccc2c1=O; > 100 µM
9. NC(N)=NCCCC(Nc1c2ccccc2nc2ccccc12)C(=O)O (stereo unspecified); > 100 µM
10. NC(=S)N/N=C/C(O[C@@H](/C=N/NC(N)=S)CO)n1cnc2c(N)ncnc21 (stereo partly specified); > 100 µM
11. COc1c(CC(C)=O)c2ccccc2n1C(C)=O; > 100 µM
